System: SR
measurement-protocol: NCI tumour cell line growth inhibition, 48 h
Calls of active or inactive are those of the source. Cut-off read from the data, not from the text of the source: active = GI50 up to about 1.1 µM and inactive = higher.
Reply using exactly one outcome from 1.0 for active, 0.0 for inactive

Use the examples below as a reference point.
>>> category_label("CCOC(=O)c1ccc(/N=C/C=C(\\Nc2ccc(C(=O)OCC)cc2)C23CC4CC(CC(C4)C2)C3)cc1")
0.0
>>> category_label("c1ccc2c(CC3NCCN3)cccc2c1")
0.0
>>> category_label("COc1cc(OC(=O)c2ccccc2)cc2c1C(=O)C=CC2=O")
1.0
>>> category_label("COc1ccc(Nc2nc3c(N)cc(C(F)(F)F)cc3nc2-c2ccccc2)cc1")
0.0
>>> category_label("C=CCC1(CC)C(=O)NC(=O)NC1=O")
0.0

Please let me know the test result on file for O=C(O)[C@@H]1CCC(=O)N1C(c1ccc2c(c1)OCO2)c1ccc2c(c1)OCO2 .
0.0

Please let me know the test result on file for C=C[C@@]1(C)CC2(C=C(CO)C(O)O2)Oc2c1c(=O)oc1cccc(C)c21 (stereo partly specified) .
0.0

Please let me know the test result on file for c1ccc(C2=NNC3c4ccccc4-c4ccccc4N3C2)cc1 (stereo unspecified) .
0.0

Please let me know the test result on file for CC(=O)N1CN2C(=O)CCC2c2ccccc21 (stereo unspecified) .
1.0

Please let me know the test result on file for Cc1ccc(C)n1-n1c(Cc2ccccc2)n[nH]c1=O .
0.0

Please let me know the test result on file for COc1ccc(/C=c2/sc3n(c2=O)C(c2ccccc2)C2(O)CCCCC2N=3)cc1 (stereo unspecified) .
0.0
